assayOverview: Cytotoxicity against human CEM-SS cells by XTT assay
Format: cell-based
Recorded CC50, one value per entry.
metricName: CC50

{"mol": "CCCN(O)C(=O)c1cc2ccn(Cc3ccc(F)cc3)c2cn1", "result": "26 µM"}
{"mol": "NC(=O)c1ccc(Cn2ccc3cc(C(=O)NO)ncc32)cc1", "result": "> 10 µM"}
{"mol": "O=C(c1cc2ccn(Cc3ccc(F)cc3)c2cn1)N(O)CCCO", "result": "77 µM"}

====

targetOrTestSystem: Human immunodeficiency virus type 1 integrase (Human immunodeficiency virus 1)
Sequence (Q7ZJM1 whole entry): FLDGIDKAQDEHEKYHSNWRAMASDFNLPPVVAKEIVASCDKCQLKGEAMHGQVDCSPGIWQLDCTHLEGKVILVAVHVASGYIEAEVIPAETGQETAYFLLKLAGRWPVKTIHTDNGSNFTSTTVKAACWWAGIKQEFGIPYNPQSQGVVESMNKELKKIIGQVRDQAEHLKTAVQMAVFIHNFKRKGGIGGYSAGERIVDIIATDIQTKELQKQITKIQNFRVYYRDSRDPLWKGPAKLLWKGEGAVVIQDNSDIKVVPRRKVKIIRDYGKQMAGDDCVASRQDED
pIC50: −log10 of the molar value.
Rule: pIC50 of 6 or more gives Criterion met; anything lower gives Criterion not met.

{"mol": "O=C(NO)c1cc2ccn(Cc3c(F)ccc(Cl)c3F)c2cn1", "assignedCategory": "Criterion met"}
{"mol": "NC(=O)c1ccc(Cn2ccc3cc(C(=O)NO)ncc32)cc1", "assignedCategory": "Criterion not met"}
{"mol": "O=C(NO)c1cc2ccn(Cc3ccc(F)cc3)c2cn1", "assignedCategory": "Criterion met"}
{"mol": "CCCN(O)C(=O)c1cc2ccn(Cc3ccc(F)cc3)c2cn1", "assignedCategory": "Criterion met"}
{"mol": "O=C(NO)c1cc2ccn(Cc3cccc(CO)n3)c2cn1", "assignedCategory": "Criterion not met"}
{"mol": "O=C(O)c1cc2ccn(Cc3cc(Cl)cs3)c2cn1", "assignedCategory": "Criterion not met"}
{"mol": "O=C(O)c1cc2ccn(Cc3ccc(F)cc3F)c2cn1", "assignedCategory": "Criterion not met"}
{"mol": "CC(C)CN(O)C(=O)c1cc2ccn(Cc3ccc(F)cc3)c2cn1", "assignedCategory": "Criterion not met"}
{"mol": "N#Cc1ccc(Cn2ccc3cc(C(=O)NO)ncc32)cc1", "assignedCategory": "Criterion not met"}
{"mol": "O=C(O)c1cc2ccn(Cc3ccccc3F)c2cn1", "assignedCategory": "Criterion not met"}
{"mol": "N#Cc1cccc(Cn2ccc3cc(C(=O)NO)ncc32)c1", "assignedCategory": "Criterion not met"}
{"mol": "CN(O)C(=O)c1cc2ccn(Cc3ccc(F)cc3F)c2cn1", "assignedCategory": "Criterion met"}
{"mol": "CC(C)N(O)C(=O)c1cc2ccn(Cc3ccc(F)cc3)c2cn1", "assignedCategory": "Criterion not met"}
{"mol": "NC(=O)c1cc(Cn2ccc3cc(C(=O)NO)ncc32)ccc1F", "assignedCategory": "Criterion met"}
{"mol": "O=C(NO)c1cc2ccn(Cc3ccc(F)cc3F)c2cn1", "assignedCategory": "Criterion met"}
{"mol": "O=C(NO)c1cc2ccn(Cc3ccc(Cl)s3)c2cn1", "assignedCategory": "Criterion met"}
{"mol": "CON(C)C(=O)c1cc2ccn(Cc3ccc(F)cc3F)c2cn1", "assignedCategory": "Criterion not met"}
{"mol": "O=C(O)c1cc2ccn(Cc3ccc(F)c(F)c3F)c2cn1", "assignedCategory": "Criterion not met"}
{"mol": "O=C(c1cc2ccn(Cc3ccc(F)cc3)c2cn1)N(O)Cc1ccccc1", "assignedCategory": "Criterion not met"}
{"mol": "NC(=O)c1cccc(Cn2ccc3cc(C(=O)NO)ncc32)c1", "assignedCategory": "Criterion not met"}
